Biological target: human leukocyte elastase (HLE) (Homo sapiens)
Sequence (P08246 30-267): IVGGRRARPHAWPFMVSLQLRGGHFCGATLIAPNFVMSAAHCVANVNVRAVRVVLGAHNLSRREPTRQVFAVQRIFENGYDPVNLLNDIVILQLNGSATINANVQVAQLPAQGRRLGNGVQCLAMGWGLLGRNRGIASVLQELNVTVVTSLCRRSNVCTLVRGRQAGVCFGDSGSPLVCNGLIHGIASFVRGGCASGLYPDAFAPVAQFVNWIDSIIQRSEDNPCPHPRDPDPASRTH
Assay: inhibition of human leukocyte elastase (HLE): rate of inactivation kon and inhibition constant Ki* (koff/kon)
Assay type: biochemical
Conditions: rate of inactivation kon of enzymatic activity; values are Kon × 10^-3
Description: Thus, instead of measuring a Ki, a Ki * is calculated which is defined as the ratio of the koff /kon, the rate of reactivation of the enzyme to the rate of inactivation of the enzyme. The values of koff and kon are measured and Ki * is then calculated. The rate of inactivation, kon, of enzymatic activity was determined for the compounds tested by measuring the enzyme activity of an aliquot of the respective enzyme as a function of time after addition of the test compound. […]
Give kon for every item shown.
# number only, unit M⁻¹ s⁻¹ dropped from output

Problem: Recorded kon of CC(C)c1cccc2c1C(=O)N(COC(=O)C(C)(C)Oc1ccccc1Cl)S2(=O)=O [Example 1F] , please.
Solution: 29000

Problem: Entry under review: COc1cc(C(C)C)c2c(c1)S(=O)(=O)N(COC(=O)C(C)(O)c1ccccc1)C2=O (stereo not shown) [Example 1J] . Reported kon?
Solution: 77700

Problem: Quick one: kon for CC(C)c1cccc2c1C(=O)N(COC(=O)C(C)(C)Oc1ccc(Cl)cc1)S2(=O)=O [Example 1E] ?
Solution: 38000

Problem: Need kon, item COc1cc(C(C)C)c2c(c1)S(=O)(=O)N(COC(=O)[C@@H](OC)c1ccccc1)C2=O [Example 1K]
Solution: 102000
